Assay: human hepatoma cell viability loss – ATP luminescence, cytotoxicity control for P. falciparum antimalarial project, primary screen (AID 2303)
Settings: HepG2 viability, 24-48 h, at 10 µM
Calls of active or inactive are those of the source.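 How the source made its calls: active means inhibition above 50%; inactive means the rest.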
Return exactly one item of Y (active), N (inactive)

## Input Write down the call the test reported for this molecule. Item: `Cc1cccc(S(=O)(=O)Nc2cccc(CCN3CCC(N4CCCCC4)CC3)c2)c1`
## Output N

## Input Write down the call the test reported for this molecule. Item: CCCC(C)Nc1nc(C)cc(N[C@@H](Cc2ccccc2)C(=O)NCc2ccc(C)cc2)n1 (some centres not stated)
## Output N

## Input Write down the call the test reported for this molecule. Item: CCC1(CC)CN(c2ccccc2)c2ccc(O)cc2S(=O)(=O)C1CC(C)C (configuration not stated)
## Output N

## Input Write down the call the test reported for this molecule. Item: `O=C(NCCCN1CCN(c2cccc(Cl)c2)CC1)c1ccc(-c2nc3cc(Cl)c(Cl)cc3[nH]2)cc1`
## Output N

## Input Write down the call the test reported for this molecule. Item: `CN1CCC(C(=O)Nc2ccc(-c3cccc(-c4nc5ccc(F)cc5[nH]4)c3)cc2)CC1`
## Output N

## Input Write down the call the test reported for this molecule. Item: `COc1ccc2nccc([C@@H](O)CN3CCC(NCc4cc5cc(Cl)ccc5[nH]4)CC3)c2c1`
## Output N

## Input Write down the call the test reported for this molecule. Item: COc1ccc2nc(NC3=NC4(c5ccccc5)N=C(Nc5nc6ccc(OC)cc6[nH]5)NC4(c4ccccc4)N3)[nH]c2c1 (configuration not stated)
## Output N

## Input Write down the call the test reported for this molecule. Item: `CCOc1ccc(-c2nc(NC(=O)Cc3cccc(OC)c3)sc2C)cc1`
## Output N

## Input Write down the call the test reported for this molecule. Item: `CCNC[C@H]1CCCN1CCOc1ccc(-n2cnc3cc(-c4ccc(Cl)cc4)sc3c2=O)cc1OC`
## Output Y

## Input Write down the call the test reported for this molecule. Item: `COc1ccc2nccc([C@@H](O)CN3CCC(NC(=O)/C=C/c4cccc(-c5ccccc5)c4)CC3)c2c1`
## Output N

## Input Write down the call the test reported for this molecule. Item: `CC(C)CNCc1ccc(-c2cccc(CN(CCN(C)C)C(=O)NCCc3ccccc3)c2)cc1`
## Output N

## Input Write down the call the test reported for this molecule. Item: `Cc1nc(C(=O)N2CCCC[C@H]2CNC(=O)c2ccc(-c3ccc(N4CCCC4=O)cc3C)cc2)c(-c2ccc(F)cc2)s1`
## Output N
